experimentalTarget: HRgpA-6H (Porphyromonas gingivalis) (UniProt P28784)
assayProtocol: ELISA, FASEBA screening, coated HRgpA-6H; variant OD over parental WT Fab OD
assayEndpoint: Ratio OD(Variant)/OD(WT)

INSERT INTO measurements (binder, valueobserved) VALUES
  ('KB001 parental mouse Fab FASEBA variant VH S65T (Fab, V domains shown) VH: EVQLKQSGPGLVAPSQSLSITCTVSGFSLSIYSVHWVRQPPGKGLEWLGMIWGGGSSDYNSALKTRLSISKDNSKSQVFLKMNSLQTDDTAMYYCARNGNFYAMDYWGQGTSVTVSS VL: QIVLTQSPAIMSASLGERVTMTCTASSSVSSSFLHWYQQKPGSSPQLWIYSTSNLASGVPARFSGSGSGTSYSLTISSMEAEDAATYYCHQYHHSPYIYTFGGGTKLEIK', 0.918),
  ('KB001 parental mouse Fab FASEBA variant VH A103M (Fab, V domains shown) VH: EVQLKQSGPGLVAPSQSLSITCTVSGFSLSIYSVHWVRQPPGKGLEWLGMIWGGGSSDYNSALKSRLSISKDNSKSQVFLKMNSLQTDDTAMYYCARNGNFYMMDYWGQGTSVTVSS VL: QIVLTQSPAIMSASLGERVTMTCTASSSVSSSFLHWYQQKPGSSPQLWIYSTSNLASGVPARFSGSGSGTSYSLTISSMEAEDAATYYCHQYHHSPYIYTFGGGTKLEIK', 0.941);
